I'd be grateful if you could share measured MIC for these entries.
Test system: Staphylococcus aureus strain UAMS-1
EXPERIMENTAL_PROTOCOL: Antimicrobial susceptibility testing (MIC, broth microdilution)
Type: cell-based
CONDITION_NOTES: Staphylococcus aureus, UAMS1, 18 h, S. aureus UAMS-1, Mueller Hinton broth, 37° C., read-out: MIC

// query Using the record for CCOc1ccc(C(=O)NC(=S)NNC(=O)COc2ccc(C(C)CC)cc2)cc1 (centres unmarked) [ST5528171] , report its MIC.
// result 64 µg/mL

// query Using the record for O=C(NNC(=S)NC(=O)c1ccco1)c1cccnc1 [ST5254078] , report its MIC.
// result 128 µg/mL

// query Using the record for CCOc1ccc(OCC(=O)NNC(=S)NC(=O)c2ccco2)cc1 [MC-190071] , report its MIC.
// result 256 µg/mL

// query Using the record for CC(C)c1ccc(OCC(=O)NNC(=S)NC(=O)Cc2ccco2)cc1 [MC-190084] , report its MIC.
// result 16 µg/mL

// query Using the record for CC(C)c1ccc(OCC(=O)NNC(=S)NC(=O)/C=C/c2ccco2)cc1 [MC-190045] , report its MIC.
// result 64 µg/mL

----------
TARGET_SYSTEM: S. aureus RNase P (RnpA+rnpB) (Staphylococcus aureus, UniProt P0A0H5)
EXPERIMENTAL_PROTOCOL: RNase P activity assay (precursor tRNA processing)
Type: biochemical
CONDITION_NOTES: ptRNATyr processing, gel densitometry; read-out: RNase P IC50
I'd be grateful if you could share measured IC50 for these entries.
Kindly answer with a numeric value in µM, unit omitted.

// query Using the record for CCOc1ccc(C(=O)NC(=S)NNC(=O)COc2ccc(C(C)CC)cc2)cc1 (centres unmarked) [ST5528171] , report its IC50.
// result 280

// query Using the record for CC(C)(C)c1ccc(C(=O)Nc2ccc(C(=O)NNC(=S)NC(=O)c3ccco3)cc2)cc1 [ST5524997] , report its IC50.
// result 70

// query Using the record for Cc1ccc(C(=O)NNC(=S)NC(=O)c2ccco2)cc1 [ST5682777] , report its IC50.
// result 70

----------
Tested on: Staphylococcus aureus strain UAMS-1
EXPERIMENTAL_PROTOCOL: Antimicrobial susceptibility testing (MIC, broth microdilution)
Type: cell-based
CONDITION_NOTES: S. aureus UAMS-1, Mueller Hinton broth, 37° C., 18 hours
I'd be grateful if you could share measured MIC for these entries.
Kindly answer with a numeric value in µg/mL, unit omitted.

// query Using the record for Cc1ccc(C(=O)NNC(=S)NC(=O)c2ccco2)cc1 [ST5682777] , report its MIC.
// result 16

// query Using the record for O=C(NC(=S)NNC(=O)c1ccccc1O)c1ccco1 [ST5703881] , report its MIC.
// result 16

// query Using the record for O=C(NC(=S)NNC(=O)c1ccccc1O)c1ccco1 [MC-190069] , report its MIC.
// result 64

// query Using the record for Cc1ccc(C(=O)NNC(=S)NC(=O)c2ccco2)cc1 [MC-190073] , report its MIC.
// result 64

----------
TARGET_SYSTEM: UniProt:P0A0H5
EXPERIMENTAL_PROTOCOL: RnpA mRNA degradation activity assay
Assay type: biochemical
CONDITION_NOTES: RnpA mRNA degradation, gel densitometry; read-out: RnpA IC50
pIC50: −log10 of the molar value.
Hi, to clarify the labels: MET covers pIC50 from 4 upward, NOT MET covers anything below 4.

// query Reported pIC50 reaches at least 4 for CCOc1ccc(OCC(=O)NNC(=S)NC(=O)c2ccco2)cc1 ?
// result NOT MET

// query Reported pIC50 reaches at least 4 for CC(C)c1ccc(CNc2c(NCCc3ccco3)c(=O)c2=O)cc1 ?
// result NOT MET

// query Reported pIC50 reaches at least 4 for CCC(C)c1ccc(OCC(=O)NNC(=S)NC(=O)C2CCCCC2)cc1 (stereo not shown) ?
// result NOT MET

// query Reported pIC50 reaches at least 4 for CC(C)c1ccc(OCC(=O)NNC(=S)NC(=O)c2c[nH]c3ccccc23)cc1 ?
// result MET

// query Reported pIC50 reaches at least 4 for CC(C)C(=O)Nc1ccc(C(=O)NNC(=S)NC(=O)c2ccco2)cc1 ?
// result NOT MET

// query Reported pIC50 reaches at least 4 for CC(C)c1ccc(OCC(=O)NNC(=O)/C=C/c2cc3ccccc3o2)cc1 ?
// result MET

// query Reported pIC50 reaches at least 4 for O=C(Cc1ccc(Cl)cc1)NNC(=S)NC(=O)c1ccco1 ?
// result NOT MET

// query Reported pIC50 reaches at least 4 for O=C(CNC(=O)C1CCCCC1)NNC(=S)NC(=O)c1ccco1 ?
// result NOT MET

// query Reported pIC50 reaches at least 4 for COc1ccc(C(=O)NC(=S)NNC(=O)c2ccco2)cc1 ?
// result NOT MET

// query Reported pIC50 reaches at least 4 for CC(C)CNC(=S)NNC(=O)c1ccc(COc2ccc(C(C)(C)C)cc2)o1 ?
// result MET

// query Reported pIC50 reaches at least 4 for Cc1cc(C)cc(OCC(=O)NNC(=S)NC(=O)C2CC2)c1 ?
// result NOT MET

// query Reported pIC50 reaches at least 4 for O=C(NC(=S)NNC(=O)c1ccc(O)cc1O)c1ccco1 ?
// result NOT MET

// query Reported pIC50 reaches at least 4 for Cc1ccc(C(=O)NC(=S)NNC(=O)COc2ccc(C(C)C)cc2)o1 ?
// result MET

// query Reported pIC50 reaches at least 4 for CC(C)c1ccc(OCC(=O)NNC(=O)c2ccsc2)cc1 ?
// result NOT MET

// query Reported pIC50 reaches at least 4 for O=C(NNC(=S)NC(=O)c1ccco1)c1ccc(F)cc1 ?
// result NOT MET

// query Reported pIC50 reaches at least 4 for COc1ccc2cc(C(=O)NNC(=O)COc3ccc(C(C)C)cc3)[nH]c2c1 ?
// result NOT MET

// query Reported pIC50 reaches at least 4 for CC(C)c1ccc(OCC(=O)NNC(=S)NC(=O)c2cc3ccccc3o2)cc1 ?
// result MET

// query Reported pIC50 reaches at least 4 for CC(C)c1ccc(OCC(=O)NNC(=S)NC(=O)c2ccc(Br)o2)cc1 ?
// result MET

// query Reported pIC50 reaches at least 4 for O=C(NNC(=S)NC(=O)c1ccco1)c1ccncc1 ?
// result NOT MET

----------
TARGET_SYSTEM: S. aureus RNase P (RnpA+rnpB) (Staphylococcus aureus)
Sequence (P0A0H5 1-117): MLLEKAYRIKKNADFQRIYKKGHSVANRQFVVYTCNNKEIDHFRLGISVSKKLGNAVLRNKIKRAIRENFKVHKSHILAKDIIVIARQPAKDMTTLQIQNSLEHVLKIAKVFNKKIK
EXPERIMENTAL_PROTOCOL: RNase P activity assay (precursor tRNA processing)
Format: biochemical
CONDITION_NOTES: ptRNATyr processing, gel densitometry; read-out: RNase P IC50
Experimental: The RNase P inhibitors described herein were tested for activity toward RNase P. S. aureus RNase P activity assays were performed in low salt buffer (50 mM Tris-HCl pH 8.0, 5 mM MgCl2) or in high salt buffer (50 mM Tris-HCl pH 8.0, 100 mM MgCl2, 800 mM NH4Cl). […] The percent RNase P activity was then calculated using the following calculation: (test compound tRNATyr signal/positive control tRNATyr signal)*100.
pIC50: −log10 of the molar value.
Hi, to clarify the labels: Condition met covers pIC50 from 4 upward, Condition not met covers anything below 4.

// query Reported pIC50 reaches at least 4 for CC(C)CNC(=S)NNC(=O)c1ccc(COc2ccc(C(C)(C)C)cc2)o1 [ST5607017] ?
// result Condition not met

// query Reported pIC50 reaches at least 4 for Cc1ccccc1C(=O)NNC(=S)NC(=O)c1ccco1 [ST5638722] ?
// result Condition not met

// query Reported pIC50 reaches at least 4 for CC(C)c1ccc(OCC(=O)NNC(=O)c2cccs2)cc1 [MC-190035] ?
// result Condition not met

// query Reported pIC50 reaches at least 4 for CC(C)c1ccc(CNc2c(NCCc3ccco3)c(=O)c2=O)cc1 [MC-190092] ?
// result Condition not met

// query Reported pIC50 reaches at least 4 for Cc1ccc(C(C)C)c(OCC(=O)NNC(=S)NC(=O)c2ccccc2OCCOc2ccccc2)c1 [ST5528960] ?
// result Condition not met

// query Reported pIC50 reaches at least 4 for COc1ccccc1OCC(=O)NNC(=S)NC(=O)c1ccco1 [ST5682778] ?
// result Condition not met

// query Reported pIC50 reaches at least 4 for COc1ccc(OCC(=O)NNC(=S)NC(=O)c2ccc(Br)o2)cc1 [ST5523216] ?
// result Condition not met

// query Reported pIC50 reaches at least 4 for Cc1ccc(C(=O)NNC(=O)COc2ccc(C(C)C)cc2)o1 [MC-190041] ?
// result Condition not met

// query Reported pIC50 reaches at least 4 for O=C(NC(=S)NNC(=O)c1ccccc1O)c1ccco1 [ST5703881] ?
// result Condition not met

// query Reported pIC50 reaches at least 4 for CC(C)(C)c1ccc(OCC(=O)NNC(=S)NC(=O)c2ccco2)c(Br)c1 [ST5524527] ?
// result Condition not met

// query Reported pIC50 reaches at least 4 for CC(C)c1ccc(OCC(=O)NNC(=S)NC(=O)c2ccncc2)cc1 [MC-190050] ?
// result Condition not met

// query Reported pIC50 reaches at least 4 for O=C(CNC(=O)C1CCCCC1)NNC(=S)NC(=O)c1ccco1 [ST5526682] ?
// result Condition not met

// query Reported pIC50 reaches at least 4 for O=C(NC(=S)NNC(=O)c1ccccc1O)c1ccco1 [MC-190069] ?
// result Condition not met

// query Reported pIC50 reaches at least 4 for CC(C)c1ccc(OCC(=O)NNC(=S)NC(=O)/C=C/c2ccco2)cc1 [MC-190045] ?
// result Condition met

// query Reported pIC50 reaches at least 4 for CC(C)c1ccc(OCC(=O)NNC(=S)NC(=O)c2ccc(Br)o2)cc1 [MC-190046] ?
// result Condition not met

// query Reported pIC50 reaches at least 4 for O=C(Cc1ccc(Cl)cc1)NNC(=S)NC(=O)c1ccco1 [ST5642600] ?
// result Condition not met

// query Reported pIC50 reaches at least 4 for O=C(COc1ccc(-c2ccccc2)cc1)NNC(=S)NC(=O)c1ccc(Br)o1 [ST5524465] ?
// result Condition met

// query Reported pIC50 reaches at least 4 for CC(C)c1ccc(OCC(=O)NNC(=O)c2ccsc2)cc1 [MC-190036] ?
// result Condition not met

// query Reported pIC50 reaches at least 4 for O=C(NNC(=S)NC(=O)c1ccco1)c1ccc(F)cc1 [ST5703018] ?
// result Condition not met

// query Reported pIC50 reaches at least 4 for CC(C)c1ccc(OCC(=O)NNC(=O)c2cc3ccccc3n2C)cc1 [MC-190057] ?
// result Condition met

// query Reported pIC50 reaches at least 4 for COc1ccc(OCC(=O)NNC(=S)NC(=O)c2ccco2)cc1 [MC-190070] ?
// result Condition not met

// query Reported pIC50 reaches at least 4 for CC(Oc1ccc2ccccc2c1)C(=O)NNC(=S)NC(=O)c1ccco1 (centres unmarked) [ST5682782] ?
// result Condition not met

// query Reported pIC50 reaches at least 4 for CCCCCCCC(=O)NC(=S)NNC(=O)COc1ccc(C(C)CC)cc1 (centres unmarked) [ST5528863] ?
// result Condition not met

// query Reported pIC50 reaches at least 4 for CC(C)c1ccc(OCC(=O)NNC(=S)NC(=O)C2CC2)cc1 [ST5523314] ?
// result Condition not met

// query Reported pIC50 reaches at least 4 for CC(C)c1ccc(OCC(=O)NNC(=S)NC(=O)c2cccnc2)cc1 [MC-190049] ?
// result Condition not met

// query Reported pIC50 reaches at least 4 for COCCOC(=O)CCC(=O)NC(=S)NNC(=O)COc1ccc(C(C)C)cc1 [ST5528839] ?
// result Condition not met

// query Reported pIC50 reaches at least 4 for O=C(NNC(=S)NC(=O)c1ccco1)c1ccncc1 [ST4145527] ?
// result Condition not met

// query Reported pIC50 reaches at least 4 for CC(C)c1ccc(OCC(=O)NNC(=S)NC(=O)c2cc3ccccc3[nH]2)cc1 [MC-190054] ?
// result Condition met

// query Reported pIC50 reaches at least 4 for CCC(C)c1ccc(OCC(=O)NNC(=S)NC(=O)c2ccc(-c3ccccc3)cc2)cc1 (centres unmarked) [ST5525289] ?
// result Condition not met

// query Reported pIC50 reaches at least 4 for CC(C)c1ccc(OCC(=O)NNC(=S)NC(=O)c2cc3ccc(Cl)cc3[nH]2)cc1 [MC-190066] ?
// result Condition met

// query Reported pIC50 reaches at least 4 for O=C(NNC(=S)NC(=O)c1ccco1)c1cccnc1 [ST5254078] ?
// result Condition not met

// query Reported pIC50 reaches at least 4 for CC(C)c1ccccc1OCC(=O)NNC(=S)NC(=O)c1ccccc1OCCOc1ccccc1 [ST5528880] ?
// result Condition not met

// query Reported pIC50 reaches at least 4 for CCCc1ccc(OCC(=O)NNC(=S)NC(=O)c2ccco2)cc1 [ST5682783] ?
// result Condition met
